System: SW684
Test: relative viability vs DMSO control (72 h) (fraction); higher = more viable cells
Conditions: 0.3704 µM
Mark Y only for relative viability values smaller than 0.6; exact matches and larger values are N.

Here's what some known entries look like.
CC(C)N1CCN(Cc2cnc(-c3cc(-c4cccc5[nH]ccc45)cc4[nH]ncc34)o2)CC1: N
CC(=O)Nc1cccc(-n2c(=O)n(C3CC3)c(=O)c3c(Nc4ccc(I)cc4F)n(C)c(=O)c(C)c32)c1: Y
Cc1cc(Nc2ncnc3ccc(NC4=NC(C)(C)CO4)cc23)ccc1Oc1ccn2ncnc2c1: N
COc1c(OCCCN2CCOCC2)ccc2c1N=C(NC(=O)c1cnc(N)nc1)N1CCN=C21: Y

Turning now to a further record.
Lab log: compare recorded relative viability with 0.6; is it strictly lower for "COCc1c(-c2cc3cc(C)cc(OC)c3s2)c2c(N)ncnn2c1CN1CCNC(=O)C1" ? N

###

Test system: SW684
Test: relative viability vs DMSO control (72 h) (fraction); higher = more viable cells
Settings: 0.00152 µM
Structures can show the parent of a compound that is named as a salt.
Recorded relative viability by entry
Just the number, please.

C[C@@H]1COCCN1c1cc(-c2ccnn2C)c2ccnc(-c3ccn[nH]3)c2n1: 1.18
CC(C)(C)c1cc(NC(=O)Nc2ccc(-c3cn4c(n3)sc3cc(OCCN5CCOCC5)ccc34)cc2)no1 [Quizartinib]: 1.21
CCCS(=O)(=O)Nc1ccc(F)c(C(=O)c2c[nH]c3ncc(-c4ccc(Cl)cc4)cc23)c1F [Vemurafenib]: 1.18
COc1cc2c(Oc3ccc4[nH]c(C)cc4c3F)ncnc2cc1OCCCN1CCCC1 [Cediranib]: 1.17
CCN1CCN(Cc2ccc(Nc3ncc(F)c(-c4cc(F)c5nc(C)n(C(C)C)c5c4)n3)nc2)CC1 [Abemaciclib]: 1.13

Field request: relative viability | item: C=CC(=O)N1CCC[C@@H](n2nc(-c3ccc(Oc4ccccc4)cc3)c3c(N)ncnc32)C1 [Ibrutinib] 1.2

Fill blank: measured relative viability of the molecule COc1cccc2c1C(=O)c1c(O)c3c(c(O)c1C2=O)C[C@@](O)(C(=O)CO)C[C@@H]3O[C@H]1C[C@H](N)[C@H](O)[C@H](C)O1 [Doxorubicin Hydrochloride] is ____. 1.2

###

Test system: HS729
Assay: relative viability vs DMSO control (72 h) (fraction); higher = more viable cells
Details: 0.00457 µM
Below: a set of entries, each annotated with reported relative viability.
Give the value as a plain number.

The cases that follow already have their relative viability on record.
CC(C)N1CCN(Cc2cnc(-c3cc(-c4cccc5[nH]ccc45)cc4[nH]ncc34)o2)CC1: 0.938
Nc1cc(C(F)(F)F)c(-c2cc(N3CCOCC3)nc(N3CCOCC3)n2)cn1: 0.906

Please turn your attention to the following entry.
Lab note: need relative viability with HS729 for entry "C=CC(=O)N1CCC[C@@H](n2nc(-c3ccc(Oc4ccccc4)cc3)c3c(N)ncnc32)C1" , please look it up. 0.95

###

Tested on: SK-LMS-1
Experiment: standardised AUC of viability dose-response curve (72 h) (fraction (0-1)); higher = less growth inhibition (more resistant)
Classify as follows. Reported standardised AUC greater than or equal to 0.9: Y. Reported standardised AUC below: N.

Use the examples below as a reference point.
CN[C@@H]1C[C@H]2O[C@@](C)([C@@H]1OC)n1c3ccccc3c3c4c(c5c6ccccc6n2c5c31)C(=O)NC4: N
CC(C)N1CCN(Cc2cnc(-c3cc(-c4cccc5[nH]ccc45)cc4[nH]ncc34)o2)CC1: Y
CC(C)(C)c1cc(NC(=O)Nc2ccc(-c3cn4c(n3)sc3cc(OCCN5CCOCC5)ccc34)cc2)no1: Y

Hello, I need to know if "CCN1CCN(Cc2ccc(Nc3ncc(F)c(-c4cc(F)c5nc(C)n(C(C)C)c5c4)n3)nc2)CC1" has measured standardised AUC not below 0.9. Thanks! Y

# bool: standardised AUC of "Nc1cc(C(F)(F)F)c(-c2cc(N3CCOCC3)nc(N3CCOCC3)n2)cn1" >= 0.9 N

Decide: standardised AUC of "Cc1nc(-c2cn3c(n2)-c2ccc(-c4cnn(C(C)(C)C(N)=O)c4)cc2OCC3)n(C(C)C)n1" >= 0.9? N

hey, is standardised AUC for this one >= 0.9? "C=CC(=O)N1CCC([C@@H]2CCNc3c(C(N)=O)c(-c4ccc(Oc5ccccc5)cc4)nn32)CC1" Y

# credit: the supplement of paper PMC10883282
